Subject of test: T1, Biotinylated Human CD27 Ligand, HIS, Avitag (ACRO biosystem, CDL-H82Q9) (human, UniProt P32970 39-193, biotinylated (Avitag))
T1 construct: Bought reagent; also called Acro-CD70-his-Bio; CD70-his-Bio; not shown: His tag and Avitag
T1 sequence (looked up): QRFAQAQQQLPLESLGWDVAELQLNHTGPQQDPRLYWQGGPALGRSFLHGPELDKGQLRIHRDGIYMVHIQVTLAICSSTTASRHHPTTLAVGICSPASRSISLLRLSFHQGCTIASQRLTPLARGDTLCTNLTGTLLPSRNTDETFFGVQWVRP
Experimental details: phage ELISA
Outcome measure: binding result

>  <Binder>
phage monoclonal antibody clone #6 (scFv, also called scFv 06; Scfv06) scFv: QAVLTQPPSASATPGQRVSISCSGSSSNIGRNTVNWYQHLPGTAPKLLIYSNDHRPSGVPDRFSGSQSGTSASLAISGLQSEDEADYYCASWDDSLTGWVFGGGTKVTVLGSRGGGGSGGGGSGGGGSLEMAQVQLVQSGAEVKKAGSSLKVSCKANGGSFTNYLINWVRQAPGQGLEWMGGIIPVYGTPIYSQKFQGRVTFTADEPTRTAYMELSSLTFEDTAVYYCVREDEGYGDLYLAYWGQGTLVTVSS

>  <Outcome measure>
binding result

>  <Observed>
binds

$$$$
>  <Binder>
phage monoclonal antibody clone #9 (VHH, single-domain antibody (heavy chain variable region alone); also called VHH 09; 09 antibody) VHH: EVQLLESGGGLVQPGGSLRLSCAASGFTFNIDAMGWVRQAPGKGLEWVSSISSSGGTTYYADSVKGRFTISRDNSKNTLYLQMNSLRAEDTAVYYCARSRYSVPDGRGSYDVWGQGTLVTVSS

>  <Outcome measure>
binding result

>  <Observed>
binds

$$$$
>  <Binder>
phage monoclonal antibody clone #20 (VHH, single-domain antibody (heavy chain variable region alone); also called VHH20; VHH 20) VHH: EVQLLESGGGLVQPGGSLRLSCAASGFTFSSYAMGWVRQAPGKGLEWVSSISGYGEETYYADSVKGRFTISRDNSKNTLYLQMNSLRAEDTAVYYCARFYYRYWKEFDYWGQGTLVTVSS

>  <Outcome measure>
binding result

>  <Observed>
binds

$$$$
